Values were extracted from patent US20190135787A1.

Test: Salt screen: physical stability under accelerated aging conditions (HT-XRPD)
Format: physicochemical
Details: solid from dichloromethane; 40° C., 75% RH, two days; code+number = crystalline salt form, 0 = crystalline counter ion itself
readout: XRPD2: solid form after accelerated aging

N[C@@H](CC(=O)O)C(=O)O = Amorphous
O=C(O)C(O)c1ccccc1 (racemic) = Amorphous
Cl [Hydrochloric acid] = Amorphous
O=C(O)c1ccccc1O = Amorphous

Request: Hello, please tell me recorded XRPD2: solid form after accelerated aging for this one: O=P(O)(O)O
Response: Pho3

Request: Hello, please tell me recorded XRPD2: solid form after accelerated aging for this one: O=C(O)CNC(=O)c1ccccc1
Response: Amorphous

Request: Hello, please tell me recorded XRPD2: solid form after accelerated aging for this one: O=S(=O)(O)O
Response: Amorphous

Request: Hello, please tell me recorded XRPD2: solid form after accelerated aging for this one: O=C[C@H](O)[C@@H](O)[C@H](O)[C@H](O)C(=O)O
Response: Amorphous

Request: Hello, please tell me recorded XRPD2: solid form after accelerated aging for this one: O=C(O)CCCC(=O)O
Response: Glut1

Request: Hello, please tell me recorded XRPD2: solid form after accelerated aging for this one: CS(=O)(=O)O
Response: Amorphous

Request: Hello, please tell me recorded XRPD2: solid form after accelerated aging for this one: Br [Hydrobromic acid]
Response: Amorphous

Request: Hello, please tell me recorded XRPD2: solid form after accelerated aging for this one: O=C(O)[C@H](O)[C@@H](O)C(=O)O [(+)-L-Tartaric acid]
Response: Amorphous

Request: Hello, please tell me recorded XRPD2: solid form after accelerated aging for this one: O=S(=O)(O)CCS(=O)(=O)O
Response: Eds1

Request: Hello, please tell me recorded XRPD2: solid form after accelerated aging for this one: O=C(O)[C@H](O)[C@@H](O)[C@H](O)[C@H](O)CO
Response: Amorphous

Request: Hello, please tell me recorded XRPD2: solid form after accelerated aging for this one: O=S(=O)(O)c1ccc2ccccc2c1
Response: Amorphous

Request: Hello, please tell me recorded XRPD2: solid form after accelerated aging for this one: N[C@@H](CCC(=O)O)C(=O)O
Response: Amorphous

Request: Hello, please tell me recorded XRPD2: solid form after accelerated aging for this one: O=C(O)c1cc(O)ccc1O
Response: Gen2

Request: Hello, please tell me recorded XRPD2: solid form after accelerated aging for this one: CC(=O)O
Response: Amorphous
